# measurement-target: T1, human CD48 (on primary human peripheral blood mononuclear cells) (human, UniProt P09326 27-220)
# T1 sequence: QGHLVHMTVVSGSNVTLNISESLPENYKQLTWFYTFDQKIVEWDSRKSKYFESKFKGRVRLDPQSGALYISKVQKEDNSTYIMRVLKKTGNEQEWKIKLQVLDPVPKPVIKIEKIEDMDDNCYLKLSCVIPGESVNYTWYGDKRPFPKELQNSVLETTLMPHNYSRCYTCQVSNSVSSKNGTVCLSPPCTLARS
# assay-notes: cell-based or functional assay
quantity: Inhibition of IFN-gamma Release IC50; Donor 9 (Molar)
One number for each entry, in Molar.

Kindly note the recorded Inhibition of IFN-gamma Release IC50; Donor 9 for H4H1763N (antibody, human IgG4, V domains shown, Human IgG4 Fc (H4H) form of 1763N) VH: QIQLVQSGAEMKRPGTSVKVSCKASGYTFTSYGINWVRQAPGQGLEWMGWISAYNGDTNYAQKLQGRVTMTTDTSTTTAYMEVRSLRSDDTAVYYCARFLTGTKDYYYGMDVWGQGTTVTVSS VL: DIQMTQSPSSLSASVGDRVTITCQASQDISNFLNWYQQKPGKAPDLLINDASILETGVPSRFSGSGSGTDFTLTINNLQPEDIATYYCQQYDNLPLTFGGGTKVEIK , which is 9.3e-12
